Where do the numbers come from? From paper PMC12562379.

# Tested on: HeLa, SKOV-3, AGS (and HaCaT) cell lines
# Protocol summary: MTT assay, ranges stated over several cell lines
# Assay type: cell-based, human
# Test settings: Homo sapiens, range over HeLa and SKOV-3 cell lines
Measured metric: IC50

>  <Given smiles>
Brc1ccc(/C=C(/C2=NCCN2)n2ccc3ccccc32)cc1

>  <Result>
2.37 to 2.76 µg/mL

$$$$
>  <Given smiles>
O=[N+]([O-])c1ccc(/C=C(/C2=NCCN2)n2ccc3ccccc32)cc1

>  <Result>
5.6 to 7.06 µg/mL

$$$$
>  <Given smiles>
Clc1ccc(/C=C(/C2=NCCN2)n2ccc3ccccc32)cc1

>  <Result>
3.13 to 4.4 µg/mL

$$$$

QUERY: Indicate its recorded IC50; the compound in question is C(=C(\C1=NCCN1)n1ccc2ccccc21)/c1ccc2ccccc2c1
RESULT: 2.03 to 2.45 µg/mL

###

# Assay target: AGE2-BSA/sRAGE interaction (Homo sapiens, UniProt Q15109)
# Construct: purchased Creative BioMart
# Sequence (Q15109 23-342 limits assumed): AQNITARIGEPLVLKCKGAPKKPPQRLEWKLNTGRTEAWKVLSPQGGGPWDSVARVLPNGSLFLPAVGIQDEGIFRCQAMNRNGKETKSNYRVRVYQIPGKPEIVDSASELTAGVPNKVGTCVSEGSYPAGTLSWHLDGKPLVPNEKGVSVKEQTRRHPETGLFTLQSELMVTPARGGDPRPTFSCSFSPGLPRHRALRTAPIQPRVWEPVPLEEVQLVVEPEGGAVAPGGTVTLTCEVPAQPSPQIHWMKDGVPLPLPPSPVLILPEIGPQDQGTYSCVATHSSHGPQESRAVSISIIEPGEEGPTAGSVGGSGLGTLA
# Protocol summary: ELISA AGE2-BSA/sRAGE inhibitory screening
# Type: binding
Use 1 when the recorded inhibition at 100 µM is no lower than 30%; use 0 when it is lower.

A selection of reference data follows.
>  <Given smiles>
Clc1ccc(/C=C(/C2=NCCN2)n2ccc3ccccc32)cc1

>  <Assay target>
AGE2-BSA/sRAGE interaction (Homo sapiens, UniProt Q15109)

>  <Assigned category>
1

$$$$
>  <Given smiles>
Fc1ccc(/C=C(/C2=NCCN2)n2ccc3ccccc32)cc1

>  <Assay target>
AGE2-BSA/sRAGE interaction (Homo sapiens, UniProt Q15109)

>  <Assigned category>
0

$$$$
>  <Given smiles>
C(=C(\C1=NCCN1)n1ccc2ccccc21)/c1cccc2ccccc12

>  <Assay target>
AGE2-BSA/sRAGE interaction (Homo sapiens, UniProt Q15109)

>  <Assigned category>
1

$$$$

QUERY: In plain terms: is recorded inhibition at 100 µM at least 30% for Brc1ccc(/C=C(/C2=NCCN2)n2ccc3ccccc32)cc1 ?
RESULT: 1

QUERY: Assess whether reported inhibition at 100 µM for C(=C(\C1=NCCN1)n1ccc2ccccc21)/c1ccc2ccccc2c1 sits at 30% or higher.
RESULT: 1

###

# System: S. aureus MRSA 12673
# Protocol summary: Microbroth dilution assay
# Assay type: cell-based
# Test settings: Staphylococcus aureus; S. aureus MRSA 12673; read-out: MIC
The label 1 is reserved for MIC strictly under 60 µg/mL; 0 covers values equal to or above it.

>  <Given smiles>
C(=C(\C1=NCCN1)n1ccc2ccccc21)/c1cccc2ccccc12

>  <Assigned category>
0

$$$$

QUERY: Please determine if COc1ccc(/C=C(/C2=NCCN2)n2ccc3ccccc32)cc1 is below 60 µg/mL in terms of MIC.
RESULT: 0

###

Property: IC50; scope: individual molecules
# System: AGS
# Protocol summary: MTT assay, cytotoxic activity
# Assay type: cell-based, human
# Test settings: Homo sapiens, 24 h, n = 12
API: value field is a number in µg/mL; no unit string.

Consider the following illustrative entries.
>  <Molecule>
Clc1ccc(/C=C(/C2=NCCN2)n2ccc3ccccc32)cc1 [Compound 2e]

>  <IC50 (µg/mL)>
11.4

$$$$
>  <Molecule>
C(=C(\C1=NCCN1)n1ccc2ccccc21)/c1ccc2ccccc2c1 [Compound 2i]

>  <IC50 (µg/mL)>
5.68

$$$$
>  <Molecule>
Brc1ccc(/C=C(/C2=NCCN2)n2ccc3ccccc32)cc1 [Compound 2f]

>  <IC50 (µg/mL)>
11.1

$$$$
>  <Molecule>
Fc1ccc(/C=C(/C2=NCCN2)n2ccc3ccccc32)cc1 [Compound 2d]

>  <IC50 (µg/mL)>
15.5

$$$$
>  <Molecule>
C(=C(\C1=NCCN1)n1ccc2ccccc21)/c1cccc2ccccc12 [Compound 2h]

>  <IC50 (µg/mL)>
18.9

$$$$

QUERY: Write IC50 of Cc1ccc(/C=C(/C2=NCCN2)n2ccc3ccccc32)cc1 [Compound 2b] ; system used: AGS
RESULT: 16.2

QUERY: Under AGS: report IC50 of COc1ccc(/C=C(/C2=NCCN2)n2ccc3ccccc32)cc1 [Compound 2c] .
RESULT: 10.3

QUERY: State recorded IC50 with AGS, entry C(=C(\C1=NCCN1)n1ccc2ccccc21)/c1ccccc1 [Compound 2a] , no comment.
RESULT: 17.2

QUERY: State the measured IC50 (AGS) of O=[N+]([O-])c1ccc(/C=C(/C2=NCCN2)n2ccc3ccccc32)cc1 [Compound 2g]
RESULT: 10.1

###

# System: SKOV-3
# Protocol summary: MTT assay, cytotoxic activity
# Assay type: cell-based, human
# Test settings: Homo sapiens, SK-OV-3; SKOV-3, MTT, 24 h, n = 12
Structures can show the parent of a compound that is named as a salt.
Reported log10(IC50) values follow for various compounds
All values: base-10 log of IC50 in µg/mL.

# count of solved cases: 6
>  <Compound>
C(=C(\C1=NCCN1)n1ccc2ccccc21)/c1cccc2ccccc12 [Compound 2h]

>  <log10(IC50)>
1.02

$$$$
>  <Compound>
Cc1ccc(/C=C(/C2=NCCN2)n2ccc3ccccc32)cc1 [Compound 2b]

>  <log10(IC50)>
0.99

$$$$
>  <Compound>
Brc1ccc(/C=C(/C2=NCCN2)n2ccc3ccccc32)cc1 [Compound 2f]

>  <log10(IC50)>
0.44

$$$$
>  <Compound>
Clc1ccc(/C=C(/C2=NCCN2)n2ccc3ccccc32)cc1 [Compound 2e]

>  <log10(IC50)>
0.64

$$$$
>  <Compound>
COc1ccc(/C=C(/C2=NCCN2)n2ccc3ccccc32)cc1 [Compound 2c]

>  <log10(IC50)>
0.94

$$$$
>  <Compound>
CC[C@]1(O)C[C@@H]2CN(CCc3c([nH]c4ccccc34)[C@@](C(=O)OC)(c3cc4c(cc3OC)N(C)[C@H]3[C@@](O)(C(=O)OC)[C@H](OC(C)=O)[C@]5(CC)C=CCN6CC[C@]43[C@@H]65)C2)C1 [Vinblastine sulfate, reference compound]

>  <log10(IC50)>
-2.10

$$$$

Could you now look at the following compound, please?
QUERY: Identify the reported log10(IC50) for the following entry. C(=C(\C1=NCCN1)n1ccc2ccccc21)/c1ccccc1 [Compound 2a]
RESULT: 0.99

###

# System: S. aureus MRSA 12673
# Protocol summary: Microbroth dilution assay
# Type: cell-based
# Test settings: Staphylococcus aureus; S. aureus MRSA 12673; read-out: MIC
List of MIC values.
Could you give me the number in µg/mL? Just the number is fine.

>  <Given smiles>
C(=C(\C1=NCCN1)n1ccc2ccccc21)/c1ccccc1

>  <U>
µg/mL

>  <MIC>
220

$$$$
>  <Given smiles>
C(=C(\C1=NCCN1)n1ccc2ccccc21)/c1ccc2ccccc2c1

>  <U>
µg/mL

>  <MIC>
30

$$$$
>  <Given smiles>
Fc1ccc(/C=C(/C2=NCCN2)n2ccc3ccccc32)cc1

>  <U>
µg/mL

>  <MIC>
120

$$$$
>  <Given smiles>
Cc1ccc(/C=C(/C2=NCCN2)n2ccc3ccccc32)cc1

>  <U>
µg/mL

>  <MIC>
220

$$$$
>  <Given smiles>
O=[N+]([O-])c1ccc(/C=C(/C2=NCCN2)n2ccc3ccccc32)cc1

>  <U>
µg/mL

>  <MIC>
110

$$$$
>  <Given smiles>
Brc1ccc(/C=C(/C2=NCCN2)n2ccc3ccccc32)cc1

>  <U>
µg/mL

>  <MIC>
55

$$$$

Note: attention shifts to another entry.
QUERY: Answer with the recorded MIC for the compound listed here: Clc1ccc(/C=C(/C2=NCCN2)n2ccc3ccccc32)cc1
RESULT: 60

###

# IC50 listing for each entry below
# Test system: SKOV-3
# Protocol summary: MTT assay, cytotoxic activity
# Format: cell-based, human
# Test settings: Homo sapiens, SK-OV-3; SKOV-3, MTT, 24 h, n = 12
# unit: µg/mL | format: bare number

>  <Compound>
Fc1ccc(/C=C(/C2=NCCN2)n2ccc3ccccc32)cc1 [Compound 2d]

>  <U>
µg/mL

>  <Numeric result>
10.2

$$$$
>  <Compound>
O=[N+]([O-])c1ccc(/C=C(/C2=NCCN2)n2ccc3ccccc32)cc1 [Compound 2g]

>  <U>
µg/mL

>  <Numeric result>
7.06

$$$$

Now turn to the next compound.
QUERY: Quick one: give measured IC50 for C(=C(\C1=NCCN1)n1ccc2ccccc21)/c1ccc2ccccc2c1 [Compound 2i]
RESULT: 2.45
